Where these numbers come from: patent US10905680B2

# Tested on: human primary hepatic stellate cells (hHSC)
# Assay Name: TGFβ1-induced expression of α-SMA protein in human HSC (ELISA)
# Assay type: cell-based
# Test Conditions: Homo sapiens, 1 h preincubation, TGFβ1 1 ng/ml, 48 hours, read-out: IC50 (level of α-SMA in TGFβ-induced HSCs)
pIC50: −log10 of the molar value.
Each entry below lists one item and its recorded pIC50 value.
Measured Endpoint: pIC50

* O=C(Nc1ncc([N+](=O)[O-])s1)c1ccccc1O [TZ] | 5.52 to 7.00
* CC(=O)Oc1ccccc1C(=O)Nc1ncc([N+](=O)[O-])s1 [NTZ, reference compound] | 5.52 to 7.00
